# protocol-description: Selective index is the ratio of inhibitory concentrations of cellular DNA polymerase alpha to HIV-1 reverse transcriptase
Can you tell me Selectivity index for the items I'm about to list?
Numbers only.

Solved entries (count: 4):
[
  {
    "molecule": "CCNc1cccnc1N1CCN(C(=O)c2cc3ccccc3[nH]2)CC1",
    "assay-result": 1500
  },
  {
    "molecule": "CC(C)Nc1cccnc1N1CCN(C(=O)c2cc3cc(F)ccc3[nH]2)CC1",
    "assay-result": 810
  },
  {
    "molecule": "CC(C)(C)Nc1cccnc1N1CCN(C(=O)c2cc3ccccc3[nH]2)CC1",
    "assay-result": 225
  },
  {
    "molecule": "CC(C)Nc1cccnc1N1CCN(C(=O)c2cc3ccccc3[nH]2)CC1",
    "assay-result": 1100
  }
]

// for each molecule in input: emit Selectivity index
1. COc1ccc2[nH]c(C(=O)N3CCN(c4ncccc4NC(C)C)CC3)cc2c1
2. CC(C)(C)Nc1cccnc1N1CCN(C(=O)c2cc3cc(F)ccc3[nH]2)CC1

1. 1500
2. 233
